SYSTEM_NAME: UniProt:O95271
Sequence (O95271 whole entry): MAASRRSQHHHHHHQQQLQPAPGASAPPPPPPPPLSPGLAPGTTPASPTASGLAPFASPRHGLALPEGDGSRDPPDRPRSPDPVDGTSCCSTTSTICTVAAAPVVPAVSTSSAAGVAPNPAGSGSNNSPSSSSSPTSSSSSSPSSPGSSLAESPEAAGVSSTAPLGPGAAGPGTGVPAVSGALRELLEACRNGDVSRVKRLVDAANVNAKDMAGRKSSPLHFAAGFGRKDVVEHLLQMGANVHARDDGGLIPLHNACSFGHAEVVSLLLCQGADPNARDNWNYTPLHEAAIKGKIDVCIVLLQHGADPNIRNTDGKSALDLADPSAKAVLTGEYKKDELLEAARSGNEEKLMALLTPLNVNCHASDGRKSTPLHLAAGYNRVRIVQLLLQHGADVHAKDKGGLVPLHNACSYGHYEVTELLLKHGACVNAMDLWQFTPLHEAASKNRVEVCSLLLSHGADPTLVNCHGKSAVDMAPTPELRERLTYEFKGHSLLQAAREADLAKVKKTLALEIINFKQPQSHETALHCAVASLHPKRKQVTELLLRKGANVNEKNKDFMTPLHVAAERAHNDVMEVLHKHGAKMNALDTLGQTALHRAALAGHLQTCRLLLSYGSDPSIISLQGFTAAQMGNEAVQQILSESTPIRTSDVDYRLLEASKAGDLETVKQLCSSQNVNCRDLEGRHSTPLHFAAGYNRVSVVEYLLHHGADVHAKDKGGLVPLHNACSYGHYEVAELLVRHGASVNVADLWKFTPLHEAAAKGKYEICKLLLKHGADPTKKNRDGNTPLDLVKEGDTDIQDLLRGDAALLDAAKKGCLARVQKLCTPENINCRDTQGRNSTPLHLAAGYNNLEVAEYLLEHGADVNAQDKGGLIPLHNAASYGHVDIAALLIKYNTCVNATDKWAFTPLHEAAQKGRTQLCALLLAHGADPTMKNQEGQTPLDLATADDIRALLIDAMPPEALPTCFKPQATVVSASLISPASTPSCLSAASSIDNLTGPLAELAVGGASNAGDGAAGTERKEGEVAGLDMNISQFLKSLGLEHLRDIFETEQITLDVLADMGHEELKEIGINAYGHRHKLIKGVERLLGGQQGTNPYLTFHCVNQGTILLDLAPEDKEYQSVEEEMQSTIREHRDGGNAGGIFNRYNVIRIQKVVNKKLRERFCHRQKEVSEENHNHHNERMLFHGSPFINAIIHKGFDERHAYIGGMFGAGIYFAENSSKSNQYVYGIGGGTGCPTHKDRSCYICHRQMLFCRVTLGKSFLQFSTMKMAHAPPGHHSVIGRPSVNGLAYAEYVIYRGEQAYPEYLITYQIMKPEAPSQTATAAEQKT
METHOD_SUMMARY: Inhibition of tankyrase-1 function in human HeLa cells
pIC50: −log10 of the molar value.
Listed here are compounds together with their documented pIC50.

# MOLECULE_SMILES, pIC50
measured = [
    ("CN(C)Cc1cc2c([nH]c(=O)c3ccccc32)s1", "< 4.00"),
]

Shift focus to the following entry.
Note down pIC50 recorded for Br.CN(C)Cc1cc2c([nH]c(=O)c3cccc(O)c32)s1 < 4.00

###

METHOD_SUMMARY: Clearance in rat hepatocytes assessed per 10^6 cells
Type: ADME, cell-based, Hepatocyte
ASSAY_SETUP: read-out: CLH
QUANTITY: hepatocyte CLint (µL/min/1e6 cells)
Hi! Could you send only the number? It should be in µL/min/1e6 cells, unit omitted.

Note down hepatocyte CLint recorded for Br.CN(C)Cc1cc2c([nH]c(=O)c3cccc(O)c32)s1 26.4

###

METHOD_SUMMARY: Half life in Sprague-Dawley rat at 10 mg/kg, iv
Assay type: ADME, organism-based
Design: dose 10 mg/kg, route intravenous
ASSAY_SETUP: in vivo
QUANTITY: half-life
// unit must come after the numeric part

Note down half-life recorded for Br.CN(C)Cc1cc2c([nH]c(=O)c3cccc(O)c32)s1 48 min

###

SYSTEM_NAME: Poly [ADP-ribose] polymerase 2 (Mus musculus)
Sequence (O88554 whole entry): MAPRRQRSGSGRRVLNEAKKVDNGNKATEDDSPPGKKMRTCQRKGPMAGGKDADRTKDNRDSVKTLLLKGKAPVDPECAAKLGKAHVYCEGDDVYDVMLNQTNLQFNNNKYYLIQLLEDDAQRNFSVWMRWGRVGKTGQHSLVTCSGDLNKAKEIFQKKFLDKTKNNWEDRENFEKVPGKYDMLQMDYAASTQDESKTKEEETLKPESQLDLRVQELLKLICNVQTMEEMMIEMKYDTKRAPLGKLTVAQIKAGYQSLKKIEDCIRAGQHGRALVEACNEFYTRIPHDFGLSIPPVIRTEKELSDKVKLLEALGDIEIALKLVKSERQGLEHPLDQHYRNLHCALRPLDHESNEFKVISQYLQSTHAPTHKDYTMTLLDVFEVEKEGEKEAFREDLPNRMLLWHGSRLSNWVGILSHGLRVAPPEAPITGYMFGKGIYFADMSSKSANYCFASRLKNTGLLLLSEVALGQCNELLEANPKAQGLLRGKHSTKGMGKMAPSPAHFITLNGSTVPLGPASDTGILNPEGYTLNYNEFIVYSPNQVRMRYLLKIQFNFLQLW
METHOD_SUMMARY: Inhibition of mouse recombinant PARP2 assessed as radioactivity incorporated from [adenine-2,8-3H]NAD into proteins by liquid scintillation spectrometry
QUANTITY: IC50 (nM)
Hi! Could you send only the number? It should be in nM, unit omitted.

# MOLECULE_SMILES, SYSTEM_NAME, IC50 (nM)
measured = [
    ("Br.CN(C)Cc1cc2c([nH]c(=O)c3cccc(O)c32)s1", "Poly [ADP-ribose] polymerase 2 (Mus musculus)", 38),
    ("O=c1[nH]c2sccc2c2ccccc12", "Poly [ADP-ribose] polymerase 2 (Mus musculus)", 600),
]

Shift focus to the following entry.
Note down IC50 recorded for CN(C)Cc1cc2c([nH]c(=O)c3ccccc32)s1 300

###

METHOD_SUMMARY: Ratio of drug level in brain to plasma in Sprague-Dawley rat at 10 mg/kg, iv
Assay type: ADME, organism-based
Parameters: dose 10 mg/kg, route intravenous
ASSAY_SETUP: read-out: BPR
QUANTITY: Kp
Just the number, please, no unit after it.

Note down Kp recorded for Br.CN(C)Cc1cc2c([nH]c(=O)c3cccc(O)c32)s1 0.26

###

METHOD_SUMMARY: Clearance in human hepatocytes assessed per 10^6 cells
Format: ADME, cell-based, Hepatocyte
ASSAY_SETUP: read-out: CLH
QUANTITY: hepatocyte CLint
// unit must come after the numeric part

Note down hepatocyte CLint recorded for Br.CN(C)Cc1cc2c([nH]c(=O)c3cccc(O)c32)s1 22.2 µL/min/1e6 cells

###

SYSTEM_NAME: Poly [ADP-ribose] polymerase 1 (Homo sapiens, UniProt P09874)
Sequence (P09874 whole entry): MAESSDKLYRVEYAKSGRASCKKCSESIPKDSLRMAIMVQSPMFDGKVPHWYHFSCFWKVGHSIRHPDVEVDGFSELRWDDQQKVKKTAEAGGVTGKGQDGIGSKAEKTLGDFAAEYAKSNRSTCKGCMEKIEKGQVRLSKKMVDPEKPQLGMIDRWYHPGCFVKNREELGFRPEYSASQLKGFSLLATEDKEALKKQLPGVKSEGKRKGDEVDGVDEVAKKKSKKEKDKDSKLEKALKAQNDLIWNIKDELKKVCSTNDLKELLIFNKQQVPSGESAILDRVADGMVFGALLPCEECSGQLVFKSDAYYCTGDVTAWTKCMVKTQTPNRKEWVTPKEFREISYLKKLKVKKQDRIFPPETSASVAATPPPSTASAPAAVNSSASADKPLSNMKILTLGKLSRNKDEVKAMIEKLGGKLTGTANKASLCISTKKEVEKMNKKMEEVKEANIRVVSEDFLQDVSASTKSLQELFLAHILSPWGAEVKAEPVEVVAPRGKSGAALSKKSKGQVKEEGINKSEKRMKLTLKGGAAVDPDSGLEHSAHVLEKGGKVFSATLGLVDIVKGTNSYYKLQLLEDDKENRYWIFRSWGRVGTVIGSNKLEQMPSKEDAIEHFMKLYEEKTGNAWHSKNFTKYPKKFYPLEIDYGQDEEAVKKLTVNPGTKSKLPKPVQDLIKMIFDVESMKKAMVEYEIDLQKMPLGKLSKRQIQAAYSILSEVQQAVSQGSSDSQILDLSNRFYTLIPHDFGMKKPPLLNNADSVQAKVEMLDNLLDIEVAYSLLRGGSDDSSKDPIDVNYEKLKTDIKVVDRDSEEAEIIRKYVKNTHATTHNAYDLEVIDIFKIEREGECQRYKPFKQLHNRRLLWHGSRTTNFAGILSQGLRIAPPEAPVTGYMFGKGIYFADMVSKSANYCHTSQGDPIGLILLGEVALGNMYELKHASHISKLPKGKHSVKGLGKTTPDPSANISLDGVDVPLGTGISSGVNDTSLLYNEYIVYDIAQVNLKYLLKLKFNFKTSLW
METHOD_SUMMARY: Inhibition of human recombinant PARP1 by fluorescence based multiwell assay
QUANTITY: IC50 (nM)
Hi! Could you send only the number? It should be in nM, unit omitted.

The examples below pair each entry with its known result.
# MOLECULE_SMILES, IC50, nM
records = [
    ("Br.CN(C)Cc1cc2c([nH]c(=O)c3cccc(O)c32)s1", 29),
    ("CN(C)Cc1cc2c([nH]c(=O)c3ccccc32)s1", 180),
]

Shift focus to the following entry.
Note down IC50 recorded for O=c1[nH]c2sccc2c2ccccc12 900
